Source listed as the supplement of paper PMC9170038.

Reported apparent KD of MS2 coat protein values are given for each entry in this list.
# Tested on: MS2 coat protein
# TEST_METHOD_NOTES: apparent KD of MS2 coat protein; higher = weaker reporter binding
# SETTINGS: Eterna round: R107; input ligand: theophylline 2 mM
Expressed in nM, but write only the number.

Reference set, count: 3
Task: Look up apparent KD of MS2 coat protein: GAGUAGAAGACGGCCGCCACUAAACAUGAGGAUCACCCAUGUCGUGAUCCGUUACCUAGAGUAGAUAGGACCGGGUCAUAUAGUC [Exclusion Tryptophan B GF 15]
Output: 30.2

Task: Look up apparent KD of MS2 coat protein: UGUAAUGGGAUCAACCCAUGAGAGUCUGAAGGAGCGAUCGUAAGAUCAGGUAGGUCGCAGGAGACAUGAGGAUCACCCAUGUAUA [Arg A Ex t2]
Output: 51.1

Task: Look up apparent KD of MS2 coat protein: GCUACACAGGACCGUACUAAGGAUUCGCCUCGAGGACCGGUACGGCCGCCACUCGUUGCGCGACAUGAGGAUCACCCAUGUGUUC [theeternabot_exclusion_MS2_Trp_A_33]
Output: 50.7

More entries:
Task: Look up apparent KD of MS2 coat protein: GCCAUCGGCGAAAGCCGAUGGUAUACAGAAGGAGCGCACGAAAGUGCAGGUAGGUCGCUGAACAUGAGGAUCACCCAUGUAAUAA [#29 Same State - Arginine A]
Output: 22.9

Task: Look up apparent KD of MS2 coat protein: AAAAUAUACGGAAGGAGCGUGUAAGAUUAAGAACAUGAGGAUCACCCAUGUUUUAAGGGAACACAGGUAGGUCGCCGUAUAUAAA [11.N]
Output: 10.3

Task: Look up apparent KD of MS2 coat protein: ACAUUUAACUGAAGGAGCGUGAUAUACAUGAGGAUCACCCAUGUGUCUUACAUGAAUAAUUCACAGGUAGGUCGCAGACUAAUGA [JR_ExcArginiB_Sub009]
Output: 39.4

###

Reported apparent KD of MS2 coat protein values are given for each entry in this list.
# Tested on: MS2 coat protein
# TEST_METHOD_NOTES: apparent KD of MS2 coat protein; designed switch direction (-1 OFF switch, 1 ON switch): 1; higher = weaker reporter binding
# SETTINGS: input ligand: microRNA oligo, concentration not stated
Expressed in nM, but write only the number.

Reference set, count: 4
Task: Look up apparent KD of MS2 coat protein: AGCUAUUAAUCAGGAUAUAGGGACAUGAGGAUCACCCAUGUGUACAUGAGUAAAUGUGAUCACGUCUAGAAGGGAUUACUAACA [SameState NG2 #38] (Eterna round: R96, puzzle: Same State NG 2)
Output: 92.9

Task: Look up apparent KD of MS2 coat protein: AUUGCUUUCGCAGGAUAUGAUGCGAAAAUUGCGUCAGAAGGGUGGAGUCUCUCAUUGCAAGAGGACAUGAGGAUCACCCAUGUC [SameState NG1 #86] (Eterna round: R96, puzzle: Same State NG 1)
Output: 245

Task: Look up apparent KD of MS2 coat protein: GGAUGAUAGACAGGAUAUUGAUUGUAAUUAGGUCAAGAAGGGUCUUUGAUUUAAACGACCAGUUACAUGAGGAUCACCCAUGUU [JR_SSNG1_Sub028] (Eterna round: R96, puzzle: Same State NG 1)
Output: 65.9

Task: Look up apparent KD of MS2 coat protein: GGACGGUUAUCAGGAUAUGCGCUGAGCAUCACGGCUACAUGAGGAUCACCCAUGUCUAGCUUCUCGCAGAAGGGAUAGCCUCCU [Eternabot solution 36] (Eterna round: R96, puzzle: Same State NG 2)
Output: 10.1

From here, focus on the item given below.
Task: Look up apparent KD of MS2 coat protein: GGCCAGAGUCAAGGAUAUGCUACCGUUUCGGUAGCAGAAGGUGAUCACAUGAGGAUCACCCAUGUUUACUGGGAGACCAUGGCC [JL SSNG1 3.69] (Eterna round: R96, puzzle: Same State NG 1)
Output: 136
